Origin of values: ChEMBL document CHEMBL1143010

- System: DNA topoisomerase 2-alpha (Homo sapiens)
- Experiment notes: Inhibition of topoisomerase 2 mediated DNA relaxation at 50 uM
Calls of active or inactive are those of the source. No cut-off for these calls is given here.
Hello, when you answer, please use one of the following outcomes: active, inactive

Illustrative cases are given below, each with its answer.
- Item smiles: "O=C1C2=C(C(=O)c3ccccc31)[C@@]1(CS2)NC(=O)[C@H]2CCCN2C1=O"
  Answer label: "active"
- Item smiles: "NCCCC[C@@H]1NC(=O)[C@]2(CSC3=C2C(=O)c2ccccc2C3=O)NC1=O"
  Answer label: "inactive"
- Item smiles: "CC(C)C[C@@H]1NC(=O)[C@@]2(CSC3=C2C(=O)c2ccccc2C3=O)NC1=O"
  Answer label: "inactive"

Query block: Could you kindly confirm the outcome this assay logged for O=C1C2=C(C(=O)c3ccccc31)[C@@]1(CS2)NC(=O)[C@H](Cc2c[nH]cn2)NC1=O ?
Result block: inactive

Query block: Could you kindly confirm the outcome this assay logged for NC(=O)C[C@@H]1NC(=O)[C@]2(CSC3=C2C(=O)c2ccccc2C3=O)NC1=O ?
Result block: inactive
